Consider the following molecules; for each one, report its pIC50.
- experimentalTarget: EHMT2 (Homo sapiens, UniProt Q96KQ7)
- Construct: host or cells: MDA-MB-231
- Sequence (Q96KQ7 whole entry): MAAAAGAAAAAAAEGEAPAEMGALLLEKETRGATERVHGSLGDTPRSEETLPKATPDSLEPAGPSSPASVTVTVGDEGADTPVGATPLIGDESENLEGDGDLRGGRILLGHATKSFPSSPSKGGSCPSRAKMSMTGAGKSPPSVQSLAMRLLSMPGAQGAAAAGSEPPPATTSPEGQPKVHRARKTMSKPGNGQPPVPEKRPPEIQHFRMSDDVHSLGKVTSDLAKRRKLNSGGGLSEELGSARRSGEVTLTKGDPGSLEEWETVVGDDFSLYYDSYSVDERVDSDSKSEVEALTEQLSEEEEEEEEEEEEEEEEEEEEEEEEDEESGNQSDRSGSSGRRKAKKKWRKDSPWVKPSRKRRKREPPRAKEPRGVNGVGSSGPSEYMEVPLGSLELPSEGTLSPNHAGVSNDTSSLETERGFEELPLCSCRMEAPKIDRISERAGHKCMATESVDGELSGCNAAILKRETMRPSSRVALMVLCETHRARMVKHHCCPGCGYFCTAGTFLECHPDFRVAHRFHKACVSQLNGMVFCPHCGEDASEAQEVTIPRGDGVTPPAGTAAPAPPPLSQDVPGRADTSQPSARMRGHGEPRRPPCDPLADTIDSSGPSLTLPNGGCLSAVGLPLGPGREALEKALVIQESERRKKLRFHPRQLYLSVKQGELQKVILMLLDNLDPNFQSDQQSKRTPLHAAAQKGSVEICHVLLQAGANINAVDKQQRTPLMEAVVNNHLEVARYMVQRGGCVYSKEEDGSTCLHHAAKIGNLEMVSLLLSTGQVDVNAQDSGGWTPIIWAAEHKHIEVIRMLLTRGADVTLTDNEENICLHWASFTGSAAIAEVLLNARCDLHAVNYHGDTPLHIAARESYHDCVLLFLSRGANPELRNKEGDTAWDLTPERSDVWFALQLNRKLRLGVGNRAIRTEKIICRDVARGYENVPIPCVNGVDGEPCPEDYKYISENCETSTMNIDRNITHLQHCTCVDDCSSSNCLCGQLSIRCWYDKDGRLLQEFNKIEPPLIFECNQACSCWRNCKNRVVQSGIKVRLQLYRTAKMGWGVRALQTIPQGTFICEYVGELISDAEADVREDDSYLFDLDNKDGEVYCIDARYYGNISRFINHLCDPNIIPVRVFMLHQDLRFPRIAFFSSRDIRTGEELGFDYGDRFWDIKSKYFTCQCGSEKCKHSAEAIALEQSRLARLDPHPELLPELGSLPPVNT
- procedureSummary: MDA-MB-231 H3K9me2 in-cell Western assay (EHMT2 ICW)
- Format: cell-based
- conditionInfo: Table VII; read-out: EHMT2 ICW IC50
pIC50: −log10 of the molar value.

Illustrative cases are given below, each with its answer.
INSERT INTO assay_data (molecule, experimentaltarget, metric, reportedresult) VALUES
  ('CNc1ccnc(Nc2ccc(OC)c(OC[C@@H](C)CN3CCC3)c2)n1', 'EHMT2 (Homo sapiens, UniProt Q96KQ7)', 'pIC50', '5.00 to 6.00'),
  ('CNc1ccnc(Nc2cnc(OC)c(OCCCN3CCC3)c2)n1', 'EHMT2 (Homo sapiens, UniProt Q96KQ7)', 'pIC50', '6.00 to 7.00');

Give pIC50 for each of the items listed below.
1. CNc1ccnc(Nc2ccc(OC)c(OCC[C@@H]3CCCN3)c2)n1
2. CCNc1cc(C)nc(Nc2ccc(OC)c(OC[C@H](O)CN3CCCC3)c2)n1
3. CNc1cc(C)nc(Nc2ccc(OC)c(OC[C@H](O)CNC3CCC3)c2)n1
4. CNc1cc(C)nc(Nc2ccc(C)c(C(=O)NCc3ccon3)c2)n1
5. CNC[C@H](C)NCc1cc(Nc2nc(C)cc(NC)n2)ccc1OC
6. CCN1CCO[C@H](COc2cc(Nc3nccc(NC)n3)ccc2OC)C1
7. CNc1cc(C)nc(Nc2ccc(OC)c(OC[C@H](O)CN3CCCC3)c2)n1

1: 5.00 to 6.00; 2: 6.00 to 7.00; 3: 5.00 to 6.00; 4: < 5.00; 5: 6.00 to 7.00; 6: < 5.00; 7: 6.00 to 7.00

Values were extracted from patent US20210198277A1.
